Let's look at some compounds and their measured melting point.

- compound: "Cc1cccc2c1nc(COc1ccc(Cl)cc1)n2CCC(C)CN1CCCC1 (racemic)"
  melting point: "85 to 87 °C"
- compound: "COC1(c2nc3ccc(C)cc3s2)C=CC(=NS(=O)(=O)c2ccc(C)cc2)C=C1 (stereo not given)"
  melting point: "166 to 168 °C"
- compound: "CCCOc1ccc(F)cc1C(=O)C=CN(C)C"
  melting point: "43 to 46 °C"
- compound: "C=CCOc1ccc(C(=O)OC2CCC(CCCCCCC(=O)C(=C)C)CC2)cc1 (stereo not given)"
  melting point: "50 °C"
- compound: "NC(=O)[C@@H]1[C@H](Nc2c(Cl)cnc3[nH]c(-c4cnn(C5CCNCC5)c4)nc23)[C@H]2C=C[C@@H]1C2"
  melting point: "203 to 205 °C"
- compound: "CCC1CC(=Cc2ccc(N(CC)CC)cc2)C(=O)C(=Cc2ccc(N(CC)CC)cc2)C1 (stereo not given)"
  melting point: "141 °C"
- compound: "CC12C=CCC1C1CCC3CC(O)CCC3C1CC2 (stereo not given)"
  melting point: "113 to 115 °C"
- compound: "O=C1CC(N2Cc3ccc(F)cc3NC2=O)C(=O)N1 (stereo not given)"
  melting point: "283 to 285 °C"
- compound: "CCC(=Cc1cn(CC(=O)N(C)CCc2ccccc2)c2ccc(OCc3ccccc3)cc12)C(=O)O"
  melting point: "205 to 207 °C"
- compound: "CC[C@@H]1NC(=O)C(F)(F)[C@@H]1O"
  melting point: "118 to 121 °C"
- compound: "O=S(=O)(c1ccccc1)n1c2ccc(Br)cc2c2cc(Cl)cnc21"
  melting point: "242 °C"
- compound: "Nc1cc(Cl)c(OCc2ccccc2-c2ccccc2)c(Cl)c1"
  melting point: "67 to 69 °C"
- compound: "O=C(c1ccccc1)C(Cc1ccccc1)C(=O)c1ccccc1"
  melting point: "102 to 103 °C"
- compound: "O=c1c2ccccc2nc(-c2cc(-c3ccccc3)c(N3CCOCC3)s2)n1-c1ccccc1Cl"
  melting point: "160 to 161 °C"
- compound: "Cc1oc2cc3sc4ccccc4c3c(-c3cc(I)c(O[C@H](C)C(=O)O)c(I)c3)c2c1C"
  melting point: "218 to 219 °C"
- compound: "Cc1nc(-c2ccccc2)cc(-c2cccc(C#N)c2)c1C(=O)NCCN1CCOCC1"
  melting point: "166 to 168 °C"
- compound: "Cc1cccc(C#CC2=CC(=NO)CCC2)n1"
  melting point: "166 to 168 °C"
- compound: "CC(C)(C)n1nn[nH]c1=S"
  melting point: "92 to 94 °C"
- compound: "Nc1cc(N2CC(c3cccs3)OC2=O)ccn1 (stereo not given)"
  melting point: "151 to 153 °C"
- compound: "C#CCN1N=C(c2ccc(OC)c(OC)c2)[C@@H]2CCCC[C@@H]2C1=O (relative stereo)"
  melting point: "118 to 121 °C"

All figures here come from a melting point compilation (Tetko et al.; mined from patent text by program, amines drawn as free bases though some values may be those of a salt).
